Source listed as patent US7217730B2.

Parameter IC50: see the listing below.
molecular target: NS5B from the BK strain (genotype 1b) (Hepatitis C virus genotype 1b, UniProt P26663); construct: NS5B from the BK strain (genotype 1b) is expressed in E. coli as a protein in which the 21 C-terminal amino acids are replaced; made in house; host or cells: E. coli; assay: Hepatitis C polymerase inhibition, NS5B BK strain, 33P-GTP filter assay; type: biochemical; details: Table 1B; NS5B BK strain; read-out: BK IC50
Sequence (P26663 2420-2989): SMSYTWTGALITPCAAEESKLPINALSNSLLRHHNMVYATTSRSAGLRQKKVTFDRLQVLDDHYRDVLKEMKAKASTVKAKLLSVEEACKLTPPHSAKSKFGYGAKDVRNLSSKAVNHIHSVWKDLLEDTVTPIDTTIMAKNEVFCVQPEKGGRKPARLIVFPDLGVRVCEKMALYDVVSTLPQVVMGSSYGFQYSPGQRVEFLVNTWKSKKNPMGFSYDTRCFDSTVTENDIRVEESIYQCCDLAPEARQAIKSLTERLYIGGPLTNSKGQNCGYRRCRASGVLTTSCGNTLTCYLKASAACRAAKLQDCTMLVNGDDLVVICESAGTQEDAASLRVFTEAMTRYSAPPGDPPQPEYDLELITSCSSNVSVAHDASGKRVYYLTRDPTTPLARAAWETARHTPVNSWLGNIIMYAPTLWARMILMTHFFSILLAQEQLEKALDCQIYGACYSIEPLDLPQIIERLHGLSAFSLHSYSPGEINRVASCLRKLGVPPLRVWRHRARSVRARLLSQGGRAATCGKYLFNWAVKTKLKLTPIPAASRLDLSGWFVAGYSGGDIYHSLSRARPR
Quick reminder: number only, in nM, skip the unit.

> print(dat)
                                   compound  reported.result
1  CCC(C)C1(CC(=O)O)OCCc2c1[nH]c1c(F)ccc(C#N)c21 (racemic)             1400
2  CC[C@H](C)C1(CC(=O)O)OCCc2c1[nH]c1c(Cl)ccc(C#N)c21 (mixture of isomers)              200

Shifting focus to the compound that follows.
Look up IC50 of COCCC1(CC(=O)O)OCCc2c1[nH]c1ccc(Cl)c(Cl)c21 (stereo not shown) and report it.
19000
